These measurements were taken from PubChem BioAssay (NCI).

# Tested on: HT29 colon
# assay_info: NCI tumour cell line growth inhibition, 48 h
measured_quantity: TGI

compound	result
COC(=O)CCC1(C)C2CCC1(C)/C(=N/O)C2 (stereo unspecified)	> 100 µM
O=C(/C=C/C12c3ccccc3C(c3ccccc31)C1C(=O)N(c3ccccc3)C(=O)C12)c1ccc(Cl)cc1 (stereo unspecified)	7.88 µM
Cc1nc(Cl)c(Cl)c(Cl)n1	0.442 µM
COC(=O)c1ccc(Oc2nc3ccccc3nc2-c2cccs2)cc1	> 100 µM
N=Nc1c(OC(=O)Nc2ccccc2)[nH]c2ccccc12	96.2 µM
CC12CCC([C@H](N3CCOCC3)/C1=N\OCCN1CCCC1)C2(C)C (stereo partly specified)	> 100 µM
COC1(C(C)(C)C)C=C(C(C)(C)C)P(=O)(O)O1 (stereo unspecified)	> 100 µM
CC(=O)Nc1ccc(-c2c3nc(c(-c4cc5ccccc5[n+](C)c4)c4ccc([nH]4)c(-c4ccc(NC(C)=O)cc4)c4nc(c(-c5cc6ccccc6[n+](C)c5)c5ccc2[nH]5)C=C4)C=C3)cc1	> 50 µM
C=C(C)C#CC(O)(C(=O)OC1CCN(C)CC1)C(C)C (stereo unspecified)	> 100 µM
CC1(C)C(c2ccccc2)=NN(O)c2ccccc21	> 100 µM
CCNC(C)(C)C(SS)c1ccc(Br)cc1 (stereo unspecified)	69.3 µM
O=S1CSCS1 (stereo unspecified)	> 100 µM
Cc1cc(N2CCN(C)CC2)nc(NCc2cc(Nc3ccnc4cc(Cl)ccc34)ccc2F)n1	3.38 µM
O=C(Cn1c(=O)c(-c2ccccc2)nc2ccccc21)c1ccc(Cl)cc1	> 100 µM
Cc1c(C(=O)CC(=O)C(=O)Nc2c(C(C)C)cccc2C(C)C)[n+](=O)c2ccccc2n1[O-]	13.9 µM
Cc1nc(Cl)c2sc(=S)n(-c3ccc(F)cc3)c2n1	5.51 µM
C=C(C)[C@@H]1CC[C@]2(C)CC[C@]3(C)[C@H](CC[C@@H]4[C@@]5(C)CC[C@H](OC(=O)c6ccccc6)C(C)(C)[C@@H]5CC[C@]43C)[C@@H]12	> 100 µM
C#CCn1c(=O)ccn(/C(=C\C(=O)OCC)C(=O)OCC)c1=O	4.4 µM
O=C(CCCn1c(=O)c2sc3ccccc3c2n2nnc(-c3ccccc3)c12)NCCc1cnc[nH]1	3.16 µM
COc1ccc(CN2C(=O)C(Cc3cc(OC)c(OC)c(C)c3OC)NC(=O)/C2=C/c2cc(OC)c(OC)c(C)c2OC)cc1 (stereo unspecified)	66.2 µM
c1cc(-c2csc(-c3ccsc3)c2)cs1	> 100 µM
O=C1NCN(c2ccccc2)C12CCN(CCc1ccc3[nH]c(=S)[nH]c3c1)CC2	> 100 µM
Oc1ccc(Cl)cc1-c1[nH]c(=S)nc(-c2ccccc2)c1Cl	> 31.6 µM
CC(=O)NC1=C(C)C(=O)c2c(nc3n2CCC3OC(=O)c2ccccc2)C1=N (stereo unspecified)	3.96 µM
CNC(=O)CCNC(=O)CCC(=O)N(C)C	> 100 µM
O=C1CSC(/C(=C/c2ccccc2)c2nc3ccccc3[nH]2)=N1	> 100 µM
COc1c(C2=NC(C(C)C)CO2)ccc2ccccc12 (stereo unspecified)	> 100 µM
COc1ccc(C[n+]2c3ccccc3n3c4ccc(N)cc4ccc32)c(OC)c1OC	33.2 µM
CC(N=C(N)N)C(=O)O (stereo unspecified)	> 100 µM
Cc1ccc(NC(=O)CC/C(CC(=O)C(C)(C)C)=N/NC(=O)C(N)=O)cc1C	> 100 µM
O=C(/C=C/c1ccccc1)c1c[nH]c2ccccc2c1=O	10.6 µM
CC(C)(C)OC(=O)NC1CC=CCC1NC(=O)OC(C)(C)C (stereo unspecified)	> 100 µM
CCCCCCCC(=O)OC[n+]1ccc(-c2c(COC(=O)NC(C)C)c(COC(=O)NC(C)C)c3n2CCC3)cc1	> 100 µM
Cc1oc2nc[nH]c(=O)c2c1C(=O)/C=C/c1ccc(Cl)cc1	10.6 µM
O=S1(=O)NNC(=NCc2ccc(Cl)c(Cl)c2)c2ccccc21	> 100 µM
COC(=O)[C@H]1[C@H]2C[C@@H]3c4[nH]c5cc(OC)ccc5c4CCN3C[C@H]2C[C@@H](OC(=O)c2cc(OC)c(OC)c(OC)c2)[C@@H]1OC	29.8 µM
NC(C/[N+]([O-])=N/O)C(=O)O (stereo unspecified)	> 395 µM
CCOC(=O)N1CCN(c2c(C)nc(C)[nH]c2=O)CC1	> 100 µM
NC1=NC(c2ccc(Cl)cc2)N(c2ccc(S(=O)(=O)Nc3ncccn3)cc2)C(N)=N1 (stereo unspecified)	> 100 µM
COc1ccc(C(C#N)NC23CC4CC(CC(C4)C2)C3)cc1OC (stereo unspecified)	> 100 µM
C/C(=N/NC(=O)c1ccncc1)c1ccc(NC(=O)C(=O)Nn2c(=S)[nH]c3ccccc3c2=O)cc1	> 100 µM
